target: Human immunodeficiency virus type 1 protease (Human immunodeficiency virus 1)
quantity_kind: pKi
Convention used: pKi is expressed as -log10 of the molar concentration.

As a guide, the following entries are already answered.
What measured pKi goes with O=C1N(Cc2ccc3nc(O)cnc3c2)[C@H](Cc2ccccc2)[C@H](O)[C@@H](O)[C@@H](Cc2ccccc2)N1Cc1ccc2nc(O)cnc2c1 ?
6.31

Let us now turn to O=C1N(Cc2ccc3nn[nH]c3c2)[C@H](Cc2ccccc2)[C@H](O)[C@@H](O)[C@@H](Cc2ccccc2)N1Cc1ccc2nn[nH]c2c1
10.05

Let us now turn to O=C1N(Cc2ccc3nc(S)oc3c2)[C@H](Cc2ccccc2)[C@H](O)[C@@H](O)[C@@H](Cc2ccccc2)N1Cc1ccc2nc(S)oc2c1
8.32

Others:
What measured pKi goes with O=C1CNc2cc(CN3C(=O)N(Cc4ccc5c(c4)NCC(=O)N5)[C@H](Cc4ccccc4)[C@H](O)[C@@H](O)[C@H]3Cc3ccccc3)ccc2N1 ?
8.21

Let us now turn to O=C1N(Cc2ccc3oc(O)nc3c2)[C@H](Cc2ccccc2)[C@H](O)[C@@H](O)[C@@H](Cc2ccccc2)N1Cc1ccc2oc(O)nc2c1
8.41

Let us now turn to Nc1nc2ccc(CN3C(=O)N(Cc4ccc5nc(N)sc5c4)[C@H](Cc4ccccc4)[C@H](O)[C@@H](O)[C@H]3Cc3ccccc3)cc2s1
8.24

Let us now turn to O=C1N(Cc2ccc3nc(O)sc3c2)[C@H](Cc2ccccc2)[C@H](O)[C@@H](O)[C@@H](Cc2ccccc2)N1Cc1ccc2nc(O)sc2c1
9.04

Let us now turn to O=C1N(Cc2ccc3c[nH]nc3c2)[C@H](Cc2ccccc2)[C@H](O)[C@@H](O)[C@@H](Cc2ccccc2)N1Cc1ccc2c[nH]nc2c1
10.74

Let us now turn to O=C1Cc2cc(CN3C(=O)N(Cc4ccc5c(c4)CC(=O)N5)[C@H](Cc4ccccc4)[C@H](O)[C@@H](O)[C@H]3Cc3ccccc3)ccc2N1
9.85

Let us now turn to O=C1N(Cc2ccc3[nH]ccc3c2)[C@H](Cc2ccccc2)[C@H](O)[C@@H](O)[C@@H](Cc2ccccc2)N1Cc1ccc2[nH]ccc2c1
8.89

Let us now turn to O=C1N(Cc2ccc3ncoc3c2)[C@H](Cc2ccccc2)[C@H](O)[C@@H](O)[C@@H](Cc2ccccc2)N1Cc1ccc2ncoc2c1
8.47

Let us now turn to O=C1N(Cc2ccc3sc(O)nc3c2)[C@H](Cc2ccccc2)[C@H](O)[C@@H](O)[C@@H](Cc2ccccc2)N1Cc1ccc2sc(O)nc2c1
6.89

Let us now turn to Nc1nc2cc(CN3C(=O)N(Cc4ccc5[nH]c(N)nc5c4)[C@H](Cc4ccccc4)[C@H](O)[C@@H](O)[C@H]3Cc3ccccc3)ccc2[nH]1
8.24

* * *

target: UniProtKB Q72874; assay: Inhibitory activity against HIV-1 RF infected MT-2 cells; format: functional, cell-based; conditions: MT2
Measured log10 IC90 values are reported for all entries that follow.
Remember, log10 of IC90, in nM.

As a guide, the following entries are already answered.
What measured log10 IC90 goes with Nc1nc2cc(CN3C(=O)N(Cc4ccc5[nH]c(N)nc5c4)[C@H](Cc4ccccc4)[C@H](O)[C@@H](O)[C@H]3Cc3ccccc3)ccc2[nH]1 ?
3.91

Let us now turn to O=C1N(Cc2ccc3scnc3c2)[C@H](Cc2ccccc2)[C@H](O)[C@@H](O)[C@@H](Cc2ccccc2)N1Cc1ccc2scnc2c1
3.51

Let us now turn to O=C1Nc2ccc(CN3C(=O)N(Cc4ccc5c(c4)C(=O)C(=O)N5)[C@H](Cc4ccccc4)[C@H](O)[C@@H](O)[C@H]3Cc3ccccc3)cc2C1=O
3.93

Others:
What measured log10 IC90 goes with Nc1nc2ccc(CN3C(=O)N(Cc4ccc5nc(N)oc5c4)[C@H](Cc4ccccc4)[C@H](O)[C@@H](O)[C@H]3Cc3ccccc3)cc2o1 ?
1.92

Let us now turn to O=C1N(Cc2ccc3[nH]ccc3c2)[C@H](Cc2ccccc2)[C@H](O)[C@@H](O)[C@@H](Cc2ccccc2)N1Cc1ccc2[nH]ccc2c1
2.28

Let us now turn to Nc1nc2cc(CN3C(=O)N(Cc4ccc5sc(N)nc5c4)[C@H](Cc4ccccc4)[C@H](O)[C@@H](O)[C@H]3Cc3ccccc3)ccc2s1
2.98

Let us now turn to O=C1N(Cc2ccc3oc(O)nc3c2)[C@H](Cc2ccccc2)[C@H](O)[C@@H](O)[C@@H](Cc2ccccc2)N1Cc1ccc2oc(O)nc2c1
2.76

Let us now turn to Nc1nc2ccc(CN3C(=O)N(Cc4ccc5nc(N)sc5c4)[C@H](Cc4ccccc4)[C@H](O)[C@@H](O)[C@H]3Cc3ccccc3)cc2s1
2.43

Let us now turn to O=C1CNc2cc(CN3C(=O)N(Cc4ccc5c(c4)NCC(=O)N5)[C@H](Cc4ccccc4)[C@H](O)[C@@H](O)[C@H]3Cc3ccccc3)ccc2N1
3.89
